Header: pIC50 / MALT1 (Homo sapiens, UniProt Q9UDY8) / multiple publications
pIC50: −log10 of the molar value.
metric: pIC50

1) COC(=O)c1ccc(NC(=O)c2cnn(-c3cccc4ncccc34)c2C(F)(F)F)cc1C#N; 7.37
2) CO[C@@H](C)c1c(NC(=O)Nc2cnc(-n3nccn3)c(C(F)(F)F)c2)cnc(C(F)F)c1Br (single isomer, unassigned); 6.25
3) CO[C@@H](C)c1c(NC(=O)Nc2cnc(-n3nccn3)c(Cl)c2)cncc1OCc1ccccc1; 5.62
4) N#Cc1cc(NC(=O)c2cnn(-c3ccc(F)cc3Cl)c2C(F)(F)F)cnc1-n1nccn1; 7.27
5) CS(=O)(=O)c1cc(NC(=O)c2cnn(-c3cccc4ncccc34)c2C(F)(F)F)ccc1-n1nccn1; 5.24

I. Cc1cc(F)c(N)nc1-n1ncc(C(=O)Nc2cnc(-n3nccn3)c(Cl)c2)c1C(F)(F)F
II. Cc1c(F)ccc(-n2ncc(C(=O)Nc3cnc(-n4nccn4)c(Cl)c3)c2C(F)(F)F)c1Cl
# input Pick one: I or II . Which one has the lower reported pIC50? Write down the label attached to your selection.
# output II
(II: 6.08, I: 6.97)

I. CSc1ccccc1-n1ncc(C(=O)Nc2cnc(-n3nccn3)c(Cl)c2)c1C(F)(F)F
II. CO[C@H](C)c1c(NC(=O)Nc2cnc(-n3nccn3)c(C(F)(F)F)c2)cnc(C)c1C#N
# input Pick one: I or II . Which one has the lower reported pIC50? Write down the label attached to your selection.
# output I

a. O=C(Nc1cnc(-n2nccn2)c(Cl)c1)c1cnn(-c2ncnc3[nH]ncc23)c1C(F)(F)F
b. O=C(Nc1cnc(-n2nccn2)c(Cl)c1)c1cnn(-c2cccn3nccc23)c1C(F)(F)F
# input Pick one: a or b . Which one has the lower reported pIC50? Write down the label attached to your selection.
# output a
